Test: yeast display, Sf9 membrane polyspecificity reagent, FACS + sequencing; frameworks hold sequencing errors
assay.endpoint: polyreactivity (PSR sort gate)

Worked examples follow.
polyreactivity (PSR sort gate) in this record for QVQLVESGGGLVQAGGSLRLSCAASGRIWLYAMGWYRQAPGKERELVAAISWTDGRTRYADSVKGRFTISRDNAKNTVYLQMNRLKPEDTAVYYCAPVVDRGYRRVKYYYWGQGTQVSVSS : high polyreactivity

polyreactivity (PSR sort gate) in this record for QVQLVESGGGLVQAGGSLRLICAASGFIFWSNAMGWYRQAPGKEMELVAAITWNGGDTYYADSVKGRFTISRDNAKNTVYLQMNSLKPEDTAVYYCAAVHSRRARYDYWGQGTQVTVSS : low polyreactivity

polyreactivity (PSR sort gate) in this record for QFQLVESGGGLVQAGGSLRLSCASSGSIFYGNAMVCYRQAPGKERELVADIRWSGGSTYYADSVKGRFTISRDNAKNTVYLQMNSLKPEDTAVYYCAVRSPYRWRYASRYHEYDYWGQGTQVTVSS : low polyreactivity

polyreactivity (PSR sort gate) in this record for QVQLVESGGGLVQAGGSLRLSCAASGFTFDNYAMGWYRQEPGKERELVAAINISGGRTYYADSVKGRFTISRDNAKNTVYLQMNSLKPEDTAVYYCNIYYWYYALDYWGQGTQVTVSS : high polyreactivity

Count: 3. Required value per item: polyreactivity (PSR sort gate).
1. QVQLVESGGGLVQAGGSLRLSCAASGFILDNYAMGWYRQAPGKERELVAAISGSGGSTYYADSVKGRFTISRDNAKNTVYLQMNSLKPEDTAVYYCAAYSIHYGYDAYDYWGQGTQVTVSS
2. QVQLVESGGGLVQAGGSLRLSCAASGRIFYGYAMGWYRQAPGKEREFVAAITVSAGSTYYADSVKGRFTISRDNAKNTVYLQMNSLKPEDTAVYYCAAKRYVYPSYRFDYWGKGTQVTVSS
3. QVQLVESGGGIVQAGGSLRLSCAASGSTFVVYAMVWYRQEPGKERELVAAITSGGSTYYADSVKGRFTISRDNAKNTVFLQMNSLKPDDSAVYYCNKDDFSNELYWGQGTDVTVSS

1: high polyreactivity; 2: low polyreactivity; 3: low polyreactivity

---

Test: yeast display, Sf9 membrane polyspecificity reagent, FACS + sequencing; frameworks hold sequencing errors
assay.endpoint: polyreactivity (PSR sort gate)

polyreactivity (PSR sort gate) in this record for QVQLVESGGGLVQAGGSLRLSCAASGFTFSSYAMGWSRQAPGKERELVAAITISGGRTYYADSVKGRFTISRDNAKNTVYLQMNSLIPEDTAVYYCAAVGRLARRDYWGQGTQVTVSS : high polyreactivity

polyreactivity (PSR sort gate) in this record for QVQLVESGGGLVQAGGSLRLSCAASGFTFAYYAMGWYRQAPGKERELVAGISWRGGRTYYADSVKGRFTISRDNAKNTVYLQMNSLKPEDTAVYYCAKQPGNFGRFDYWGQGTQVTVSS : high polyreactivity

---

Experiment: yeast display, Sf9 membrane polyspecificity reagent, FACS + sequencing; frameworks hold sequencing errors
assay.endpoint: polyreactivity (PSR sort gate)

Worked examples follow.
polyreactivity (PSR sort gate) in this record for QVQLVESGGGLVQAGGSLRLSCAASGITFNPNAMGWYRQAPGKERELVAVITYRGGSTYYADSVKGRFTISRDNAKNTVYLQMNSLKPEDTAVYYCAAQYIGWHLYWYDYWGQGTQVTVSS : low polyreactivity

polyreactivity (PSR sort gate) in this record for QVQLVESGGGLVQAGGSLRLSCAASGLTCRYNAMGWYRQAPGKERELVAGIRISGGNTRYADAVKGRCTISRDNAKKSVYLQMNSLKPEDTAVYYCSALTGFYNLRPYGYWGQGTQVTVSS : high polyreactivity

polyreactivity (PSR sort gate) in this record for QVQLVESGGRLVQAGGSLRLSCAASGSTFDYNAMGWYRQEPGKESEFVAAITSTGGNTYYADSVKGRFTISRDNAKNTVYLQMNSLKPEDTAVDYCNKDVARYPYGKFDYWGQGTQVTVSS : low polyreactivity

polyreactivity (PSR sort gate) in this record for QVQLGESGGGLVQAGGSLRLSCAASGIIIFLYAMGWYRPAPGKEREFVAAINYSSGSTYYADSVKGRFTISRDNAKNTVYLQMNSLKPEDTAVYYCAADPVHRYPGTGGYWGQGTQVTVSS : low polyreactivity

Note: attention shifts to another entry.
polyreactivity (PSR sort gate) in this record for QVQLVESGGGLVQAGGSLRLSCAASGFTFGANVMGWYRQAPGKERELVAAINTRGSRTYYADSVKGRFTISRDIAKNTVYLQMNSLKPEDTAVYYCAAALRKEYDYWGQGTQVTVSS : high polyreactivity
